Let's look at some compounds and their measured pIC50.
Target: UniProt:P08684
Sequence (P08684 whole entry): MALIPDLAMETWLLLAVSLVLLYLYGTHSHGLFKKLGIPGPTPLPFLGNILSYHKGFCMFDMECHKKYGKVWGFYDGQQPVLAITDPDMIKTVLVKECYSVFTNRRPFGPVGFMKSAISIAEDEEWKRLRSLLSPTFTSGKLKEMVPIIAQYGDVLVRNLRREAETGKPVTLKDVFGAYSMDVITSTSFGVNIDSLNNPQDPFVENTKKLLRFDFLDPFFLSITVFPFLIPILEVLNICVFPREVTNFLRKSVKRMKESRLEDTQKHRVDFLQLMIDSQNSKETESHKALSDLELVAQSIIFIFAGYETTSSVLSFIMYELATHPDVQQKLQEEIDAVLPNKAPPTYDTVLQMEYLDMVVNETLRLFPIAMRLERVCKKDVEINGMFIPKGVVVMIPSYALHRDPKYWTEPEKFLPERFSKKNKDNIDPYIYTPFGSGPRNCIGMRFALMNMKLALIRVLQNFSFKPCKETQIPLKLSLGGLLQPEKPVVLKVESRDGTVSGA
Experiment: Inhibition of human recombinant CYP3A4 in human liver microsomes using BFC as a substrate
pIC50: −log10 of the molar value.

[
  {
    "STRUCTURE_STRING": "COCCN1CCC(c2cc(C)c3nc(-c4c(NC[C@@H](O)c5cccc(Cl)c5)cc[nH]c4=O)[nH]c3c2)CC1",
    "EXPERIMENTAL_SYSTEM": "UniProt:P08684",
    "pIC50": 4.96
  },
  {
    "STRUCTURE_STRING": "Cc1cc(C2CCN(CCCF)CC2)cc2[nH]c(-c3c(NCCn4cc(Cl)cn4)cc[nH]c3=O)nc12",
    "EXPERIMENTAL_SYSTEM": "UniProt:P08684",
    "pIC50": 4.59
  },
  {
    "STRUCTURE_STRING": "COc1ccc([C@H](O)CNc2cc[nH]c(=O)c2-c2nc3c(C)cc(C4CCN(CCCF)CC4)cc3[nH]2)cc1Cl",
    "EXPERIMENTAL_SYSTEM": "UniProt:P08684",
    "pIC50": 5.00
  },
  {
    "STRUCTURE_STRING": "COCCN1CCC(c2cc(C)c3nc(-c4c(NCCn5cc(Cl)cn5)cc[nH]c4=O)[nH]c3c2)CC1",
    "EXPERIMENTAL_SYSTEM": "UniProt:P08684",
    "pIC50": 4.71
  },
  {
    "STRUCTURE_STRING": "COCCN1CCC(c2cc(C)c3nc(-c4c(NC[C@@H](O)c5ccc(OC)c(Cl)c5)cc[nH]c4=O)[nH]c3c2)CC1",
    "EXPERIMENTAL_SYSTEM": "UniProt:P08684",
    "pIC50": 5.11
  },
  {
    "STRUCTURE_STRING": "Cc1cc(C2CCN(C)CC2)cc2[nH]c(-c3c(NC[C@@H](O)c4cccc(Cl)c4)cc[nH]c3=O)nc12",
    "EXPERIMENTAL_SYSTEM": "UniProt:P08684",
    "pIC50": 4.85
  },
  {
    "STRUCTURE_STRING": "Cc1cc(C2CCN(CCO)CC2)cc2[nH]c(-c3c(NCCn4cc(Cl)cn4)cc[nH]c3=O)nc12",
    "EXPERIMENTAL_SYSTEM": "UniProt:P08684",
    "pIC50": 4.64
  },
  {
    "STRUCTURE_STRING": "Cc1cc(C2CCN(C)CC2)cc2[nH]c(-c3c(NCCn4cc(Cl)cn4)cc[nH]c3=O)nc12",
    "EXPERIMENTAL_SYSTEM": "UniProt:P08684",
    "pIC50": 4.40
  }
]

====

Assay: Oral bioavailability in mouse at 50 mg/kg
Format: ADME, organism-based
Conditions: in vivo
EXPERIMENTAL_ENDPOINT: bioavailability

[
  {
    "STRUCTURE_STRING": "Cc1cc(C2CCN(CCCF)CC2)cc2[nH]c(-c3c(NCCn4cc(Cl)cn4)cc[nH]c3=O)nc12",
    "EXPERIMENTAL_ENDPOINT": "bioavailability",
    "TEST_RESULT": "> 100%"
  }
]
